Kindly state pIC50 for each of the entries shown.
target: Dyrk1a (Homo sapiens)
pIC50: −log10 of the molar value.

Query: What measured pIC50 goes with "C[C@]12O[C@H](C[C@@H](O)[C@H]1O)n1c3ccccc3c3c4c(c5c6ccccc6n2c5c31)CNC4=O" ?
Response: < 7.00

Query: What measured pIC50 goes with "C[C@]12O[C@H](C[C@@H](O)[C@H]1O)n1c3ccccc3c3c4c(c5c6ccccc6n2c5c31)C(=O)NC4=O" ?
Response: < 8.00

====

Molecular target: GSK3b (Homo sapiens)
Construct: purchased Carna Biosciences
Sequence (P49841 whole entry): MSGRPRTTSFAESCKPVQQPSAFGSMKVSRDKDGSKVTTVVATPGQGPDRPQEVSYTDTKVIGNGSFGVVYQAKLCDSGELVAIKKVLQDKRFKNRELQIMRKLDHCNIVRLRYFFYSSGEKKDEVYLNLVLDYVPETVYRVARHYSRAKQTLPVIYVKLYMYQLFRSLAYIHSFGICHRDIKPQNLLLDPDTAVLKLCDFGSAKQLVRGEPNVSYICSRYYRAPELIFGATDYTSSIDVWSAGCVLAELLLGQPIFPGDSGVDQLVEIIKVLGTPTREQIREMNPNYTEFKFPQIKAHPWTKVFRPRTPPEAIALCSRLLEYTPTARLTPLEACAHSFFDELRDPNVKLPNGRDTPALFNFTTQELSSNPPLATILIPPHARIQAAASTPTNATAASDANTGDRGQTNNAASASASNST
Test: LabChip (Caliper) kinase assay, GSK3b
Assay type: biochemical
Details: compound at 10 nM, read-out: remaining kinase activity (in %) / percentage of inhibition
Experimental: The analysis of kinase activity described here was performed using LabChip (Caliper Life Sciences), specifically the Caliper LC3000 and the EZ Reader II instruments. The kinase assay used measures the conversion of a fluorescent peptide (substrate) to a phosphorylated product. The reaction mixture, in a microplate well, is introduced by a capillary in a chip where the non-phosphorylated substrate and the phosphorylated product are separated by fluorescence induced by laser. […]
Property Measured: inhibition at 0.01 µM (%)
I only need the number, in %, no unit after it.

Query: Short answer please: inhibition at 0.01 µM, GSK3b (Homo sapiens), entry "C[C@@H]1O[C@@H](n2c3ccccc3c3c4c(c5c6ccccc6[nH]c5c32)C(=O)NC4=O)C[C@@H](O)[C@H]1O"
Response: 42

Query: Short answer please: inhibition at 0.01 µM, GSK3b (Homo sapiens), entry C[C@@H]1O[C@@H](n2c3ccccc3c3c4c(c5c6ccccc6[nH]c5c32)CNC4=O)C[C@H](O)[C@H]1O [formula (XIII), N^13-1′-β-L-olivosyl-k252c]
Response: 2

Query: Short answer please: inhibition at 0.01 µM, GSK3b (Homo sapiens), entry C[C@@H]1O[C@@H](n2c3ccccc3c3c4c(c5c6ccccc6[nH]c5c32)CNC4=O)[C@H](O)[C@H](O)[C@H]1O [formula (XII), N^13-1′-β-L-rhamnosyl-k252c]
Response: 3

Query: Short answer please: inhibition at 0.01 µM, GSK3b (Homo sapiens), entry C[C@@H]1O[C@@H](n2c3ccccc3c3c4c(c5c6ccccc6[nH]c5c32)CNC4=O)C[C@@H](O)[C@H]1O [formula (XIV), N^13-1′-β-L-digitoxosyl-k252c]
Response: 1

Query: Short answer please: inhibition at 0.01 µM, GSK3b (Homo sapiens), entry "C[C@H]1O[C@@H](n2c3ccccc3c3c4c(c5c6ccccc6[nH]c5c32)C(=O)NC4=O)C[C@@H](O)[C@@H]1O"
Response: 18

Query: Short answer please: inhibition at 0.01 µM, GSK3b (Homo sapiens), entry "C[C@@H]1O[C@@H](n2c3ccccc3c3c4c(c5c6ccccc6[nH]c5c32)C(=O)NC4=O)C[C@H](O)[C@H]1O"
Response: 21

Query: Short answer please: inhibition at 0.01 µM, GSK3b (Homo sapiens), entry "C[C@@H]1O[C@@H](n2c3ccccc3c3c4c(c5c6ccccc6[nH]c5c32)C(=O)NC4=O)[C@H](O)[C@H](O)[C@H]1O"
Response: 21

Query: Short answer please: inhibition at 0.01 µM, GSK3b (Homo sapiens), entry C[C@H]1O[C@@H](n2c3ccccc3c3c4c(c5c6ccccc6[nH]c5c32)CNC4=O)C[C@@H](O)[C@@H]1O [formula (XV), N^13-1′-β-D-olivosyl-k252c]
Response: 0

====

molecular target: Ikkb (Homo sapiens, UniProt O14920); test: LabChip (Caliper) kinase assay, Ikkb; assay type: biochemical; settings: compound at 100 nM, read-out: remaining kinase activity (in %) / percentage of inhibition
Sequence (O14920 whole entry, species assumed): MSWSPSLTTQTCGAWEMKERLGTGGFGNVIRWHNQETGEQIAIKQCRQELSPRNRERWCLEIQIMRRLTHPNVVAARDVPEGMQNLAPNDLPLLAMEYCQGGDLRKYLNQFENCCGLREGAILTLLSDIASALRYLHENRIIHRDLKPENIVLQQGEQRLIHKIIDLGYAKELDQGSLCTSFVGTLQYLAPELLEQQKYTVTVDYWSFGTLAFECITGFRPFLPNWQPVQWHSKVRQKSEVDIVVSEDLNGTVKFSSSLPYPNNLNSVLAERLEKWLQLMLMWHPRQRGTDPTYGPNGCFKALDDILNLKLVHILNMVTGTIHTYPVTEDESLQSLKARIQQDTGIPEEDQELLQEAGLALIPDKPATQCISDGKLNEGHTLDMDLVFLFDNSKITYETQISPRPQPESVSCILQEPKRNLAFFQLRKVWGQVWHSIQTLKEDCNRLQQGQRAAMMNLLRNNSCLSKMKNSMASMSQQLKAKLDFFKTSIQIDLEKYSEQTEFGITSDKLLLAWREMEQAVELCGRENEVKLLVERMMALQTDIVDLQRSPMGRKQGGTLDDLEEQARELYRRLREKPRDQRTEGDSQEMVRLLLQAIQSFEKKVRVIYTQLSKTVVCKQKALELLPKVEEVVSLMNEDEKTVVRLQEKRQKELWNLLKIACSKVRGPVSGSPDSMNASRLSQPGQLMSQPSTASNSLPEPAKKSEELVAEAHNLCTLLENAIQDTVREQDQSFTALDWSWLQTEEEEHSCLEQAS
Property Measured: inhibition at 0.1 µM (%)
I only need the number, in %, no unit after it.

Query: What measured inhibition at 0.1 µM goes with C[C@@H]1O[C@@H](n2c3ccccc3c3c4c(c5c6ccccc6[nH]c5c32)CNC4=O)C[C@H](O)[C@H]1O [formula (XIII), N^13-1′-β-L-olivosyl-k252c] ?
Response: 33

Query: What measured inhibition at 0.1 µM goes with C[C@@H]1O[C@@H](n2c3ccccc3c3c4c(c5c6ccccc6[nH]c5c32)CNC4=O)[C@H](O)[C@H](O)[C@H]1O [formula (XII), N^13-1′-β-L-rhamnosyl-k252c] ?
Response: 12

Query: What measured inhibition at 0.1 µM goes with C[C@H]1O[C@@H](n2c3ccccc3c3c4c(c5c6ccccc6[nH]c5c32)CNC4=O)C[C@@H](O)[C@@H]1O [formula (XV), N^13-1′-β-D-olivosyl-k252c] ?
Response: 16

====

molecular target: SGK1 (Homo sapiens, UniProt O00141); construct: purchased Carna Biosciences; assay: LabChip (Caliper) kinase assay, SGK1; assay type: biochemical; settings: compound at 100 nM, read-out: remaining kinase activity (in %) / percentage of inhibition
Sequence (O00141 whole entry): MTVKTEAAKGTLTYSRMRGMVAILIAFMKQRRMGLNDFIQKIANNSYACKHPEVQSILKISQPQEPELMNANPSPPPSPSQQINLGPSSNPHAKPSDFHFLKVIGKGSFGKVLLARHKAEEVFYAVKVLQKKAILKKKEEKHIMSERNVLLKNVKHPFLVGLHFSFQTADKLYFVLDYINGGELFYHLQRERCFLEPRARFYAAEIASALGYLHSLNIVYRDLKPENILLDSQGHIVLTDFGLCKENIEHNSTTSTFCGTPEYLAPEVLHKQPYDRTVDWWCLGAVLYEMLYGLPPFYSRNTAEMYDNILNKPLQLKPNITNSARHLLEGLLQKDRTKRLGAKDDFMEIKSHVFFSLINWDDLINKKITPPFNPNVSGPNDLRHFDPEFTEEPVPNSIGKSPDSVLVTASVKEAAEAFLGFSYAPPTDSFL
Kindly state inhibition at 0.1 µM for each of the entries shown.
I only need the number, in %, no unit after it.

Query: What measured inhibition at 0.1 µM goes with C[C@H]1O[C@@H](n2c3ccccc3c3c4c(c5c6ccccc6[nH]c5c32)CNC4=O)C[C@@H](O)[C@@H]1O [formula (XV), N^13-1′-β-D-olivosyl-k252c] ?
Response: 12

Query: What measured inhibition at 0.1 µM goes with "C[C@@H]1O[C@@H](n2c3ccccc3c3c4c(c5c6ccccc6[nH]c5c32)C(=O)NC4=O)[C@H](O)[C@H](O)[C@H]1O" ?
Response: 13

Query: What measured inhibition at 0.1 µM goes with "C[C@H]1O[C@@H](n2c3ccccc3c3c4c(c5c6ccccc6[nH]c5c32)C(=O)NC4=O)C[C@@H](O)[C@@H]1O" ?
Response: 27

Query: What measured inhibition at 0.1 µM goes with "C[C@@H]1O[C@@H](n2c3ccccc3c3c4c(c5c6ccccc6[nH]c5c32)C(=O)NC4=O)C[C@@H](O)[C@H]1O" ?
Response: 37

Query: What measured inhibition at 0.1 µM goes with "C[C@@H]1O[C@@H](n2c3ccccc3c3c4c(c5c6ccccc6[nH]c5c32)C(=O)NC4=O)C[C@H](O)[C@H]1O" ?
Response: 17

Query: What measured inhibition at 0.1 µM goes with C[C@@H]1O[C@@H](n2c3ccccc3c3c4c(c5c6ccccc6[nH]c5c32)CNC4=O)C[C@@H](O)[C@H]1O [formula (XIV), N^13-1′-β-L-digitoxosyl-k252c] ?
Response: 14

Query: What measured inhibition at 0.1 µM goes with C[C@@H]1O[C@@H](n2c3ccccc3c3c4c(c5c6ccccc6[nH]c5c32)CNC4=O)[C@H](O)[C@H](O)[C@H]1O [formula (XII), N^13-1′-β-L-rhamnosyl-k252c] ?
Response: 6

Query: What measured inhibition at 0.1 µM goes with C[C@@H]1O[C@@H](n2c3ccccc3c3c4c(c5c6ccccc6[nH]c5c32)CNC4=O)C[C@H](O)[C@H]1O [formula (XIII), N^13-1′-β-L-olivosyl-k252c] ?
Response: 15

====

target: RSK1 (Homo sapiens); construct: purchased Carna Biosciences; assay: LabChip (Caliper) kinase assay, RSK1; assay type: biochemical; details: compound at 10 nM, read-out: remaining kinase activity (in %) / percentage of inhibition
Sequence (Q15418 whole entry): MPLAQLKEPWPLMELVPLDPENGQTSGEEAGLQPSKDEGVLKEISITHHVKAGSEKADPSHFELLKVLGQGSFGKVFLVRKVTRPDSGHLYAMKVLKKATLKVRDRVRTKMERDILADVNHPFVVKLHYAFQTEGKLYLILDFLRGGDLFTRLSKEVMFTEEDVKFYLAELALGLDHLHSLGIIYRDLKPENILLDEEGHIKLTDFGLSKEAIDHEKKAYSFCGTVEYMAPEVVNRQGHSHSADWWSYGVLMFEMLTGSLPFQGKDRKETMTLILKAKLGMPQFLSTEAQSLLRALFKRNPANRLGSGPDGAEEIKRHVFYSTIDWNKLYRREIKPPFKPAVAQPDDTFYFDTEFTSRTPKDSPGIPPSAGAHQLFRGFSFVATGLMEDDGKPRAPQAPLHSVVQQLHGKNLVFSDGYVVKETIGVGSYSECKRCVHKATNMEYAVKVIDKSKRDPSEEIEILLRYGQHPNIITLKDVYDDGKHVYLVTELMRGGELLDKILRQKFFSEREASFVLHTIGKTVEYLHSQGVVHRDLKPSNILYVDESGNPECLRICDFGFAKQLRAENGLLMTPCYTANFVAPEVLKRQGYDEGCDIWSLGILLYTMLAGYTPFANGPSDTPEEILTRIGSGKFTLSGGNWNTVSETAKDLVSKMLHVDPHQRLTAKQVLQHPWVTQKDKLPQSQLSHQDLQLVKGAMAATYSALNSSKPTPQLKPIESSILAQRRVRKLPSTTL
Kindly state inhibition at 0.01 µM for each of the entries shown.
I only need the number, in %, no unit after it.

Query: What measured inhibition at 0.01 µM goes with C[C@H]1O[C@@H](n2c3ccccc3c3c4c(c5c6ccccc6[nH]c5c32)CNC4=O)C[C@@H](O)[C@@H]1O [formula (XV), N^13-1′-β-D-olivosyl-k252c] ?
Response: -1

Query: What measured inhibition at 0.01 µM goes with "C[C@H]1O[C@@H](n2c3ccccc3c3c4c(c5c6ccccc6[nH]c5c32)C(=O)NC4=O)C[C@@H](O)[C@@H]1O" ?
Response: 31

Query: What measured inhibition at 0.01 µM goes with "C[C@@H]1O[C@@H](n2c3ccccc3c3c4c(c5c6ccccc6[nH]c5c32)C(=O)NC4=O)C[C@@H](O)[C@H]1O" ?
Response: 38

Query: What measured inhibition at 0.01 µM goes with "C[C@@H]1O[C@@H](n2c3ccccc3c3c4c(c5c6ccccc6[nH]c5c32)C(=O)NC4=O)[C@H](O)[C@H](O)[C@H]1O" ?
Response: 2

Query: What measured inhibition at 0.01 µM goes with C[C@@H]1O[C@@H](n2c3ccccc3c3c4c(c5c6ccccc6[nH]c5c32)CNC4=O)[C@H](O)[C@H](O)[C@H]1O [formula (XII), N^13-1′-β-L-rhamnosyl-k252c] ?
Response: -4

Query: What measured inhibition at 0.01 µM goes with "C[C@@H]1O[C@@H](n2c3ccccc3c3c4c(c5c6ccccc6[nH]c5c32)C(=O)NC4=O)C[C@H](O)[C@H]1O" ?
Response: 14

Query: What measured inhibition at 0.01 µM goes with C[C@@H]1O[C@@H](n2c3ccccc3c3c4c(c5c6ccccc6[nH]c5c32)CNC4=O)C[C@H](O)[C@H]1O [formula (XIII), N^13-1′-β-L-olivosyl-k252c] ?
Response: 7

Query: What measured inhibition at 0.01 µM goes with C[C@@H]1O[C@@H](n2c3ccccc3c3c4c(c5c6ccccc6[nH]c5c32)CNC4=O)C[C@@H](O)[C@H]1O [formula (XIV), N^13-1′-β-L-digitoxosyl-k252c] ?
Response: -1

Data provenance: patent US8598132B2
